The measurements presented in this section are drawn from patent US20130029983A1.

# SYSTEM TESTED: K18PL tau (Homo sapiens, UniProt P10636, P618L)
# Construct: (K18PL; amino acids 244-369); made in house
# Sequence (P10636 561-686 P618L): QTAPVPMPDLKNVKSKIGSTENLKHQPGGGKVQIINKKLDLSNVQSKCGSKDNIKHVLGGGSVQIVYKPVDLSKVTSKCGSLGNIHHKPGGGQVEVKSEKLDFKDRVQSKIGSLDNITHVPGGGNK
# METHOD DESCRIPTION: K18PL tau centrifugation (sedimentation) assay, SDS-PAGE densitometry
# Type: biochemical
# EXPERIMENTAL PARAMETERS: Table 3; K18PL tau centrifugation assay
Tick True if Tau Cent. Assay % Soluble is 40% or greater. Tick False if Tau Cent. Assay % Soluble is less than 40%.

q: Threshold query (Tau Cent. Assay % Soluble >= 40%) on CC(=O)Nc1sc(C)c2cnn(-c3ccccc3)c(=O)c12 [Compound 16]
a: False

q: Does the reported Tau Cent. Assay % Soluble for Nc1scc2c(C(=O)NCc3ccccc3)nn(-c3ccccc3)c(=O)c12 [Compound 8a] fall at or above the 40% mark?
a: True

q: Confirm if Tau Cent. Assay % Soluble reported for the molecule COc1ccc(-n2nc(C(=O)O)c3csc(N)c3c2=O)cc1 [Compound 6b] is 40% or above.
a: True

q: Record CCOC(=O)c1nn(-c2ccc(C)cc2)c(=O)c2c(N)scc12 [Compound 5h] ; criterion: Tau Cent. Assay % Soluble no lower than 40%. Met?
a: False

q: Assess whether reported Tau Cent. Assay % Soluble for CCN(CC)C(=O)c1nn(-c2ccc(OC)cc2)c(=O)c2c(N)scc12 [Compound 8d] sits at 40% or higher.
a: True

q: Reported Tau Cent. Assay % Soluble at or above 40%? Nc1scc2c(CO)nn(-c3ccccc3)c(=O)c12 [Compound 15]
a: True

q: Is it the case that CCOC(=O)c1nn(-c2ccccc2)c(=O)c2c(N)sc(C)c12 [Compound 5f] has Tau Cent. Assay % Soluble reaching or exceeding 40%?
a: False

q: API: above_or_equal(metric=Tau Cent. Assay % Soluble, cutoff=40%) for item CCOC(=O)c1nn(-c2ccccc2)c(=O)c2c(NC(C)=O)scc12 [Compound 9b]
a: False

q: Has CCOC(=O)c1nn(-c2ccc(OC)cc2)c(=O)c2c(NC(=O)Cc3ccccc3)scc12 [Compound 9a] a recorded Tau Cent. Assay % Soluble greater than or equal to 40%?
a: False

q: Can CCOC(=O)c1nn(-c2ccc(C)c(C)c2)c(=O)c2c(N)scc12 [Compound 5c] be said to have Tau Cent. Assay % Soluble at or above 40%?
a: False
